# assay-details: Cytotoxicity against human MT4 cells assessed as inhibition of overall cell metabolism after 5 days by MTT assay
# Format: ADME, cell-based
Kindly state CC50 at 120 h for each of the entries shown.

get_value(item= `C=C1[C@H](OC(C)=O)[C@H]2[C@@H](OC(C)=O)[C@](C)(O)C[C@]2(OC(C)=O)C(=O)[C@H](C)/C=C/C(C)(C)C(=O)[C@H](OC(=O)C(C)C)[C@H]1OC(C)=O` , readout=CC50 at 120 h) returns > 32 µM

get_value(item= `C=C1[C@H](OC(C)=O)[C@H]2[C@@H](OC(C)=O)[C@](C)(O)C[C@]2(OC(C)=O)C(=O)[C@H](C)/C=C/C(C)(C)C(=O)[C@H](OC(=O)c2ccccc2)[C@H]1OC(C)=O` , readout=CC50 at 120 h) returns > 30 µM

get_value(item= `Cc1ccnc2c1NC(=O)c1cccnc1N2C1CC1` , readout=CC50 at 120 h) returns > 15 µM
